testSummary: Biodistribution of 68Ga-labeled peptide in mice bearing B16F10 mouse melanoma
Type: in vivo, C57BL/6J mice
condition: lungs, iv, total radioactivity, 2 h p.i. unblocked, C57BL/6J mice, B16F10 melanoma, read-out: Biodistribution, Lungs
measurementKind: tissue uptake at 2 h (%ID/g)
Give just the number in %ID/g; leave the unit off.

What does the record list as tissue uptake at 2 h for CCCC[C@H](NC(=O)CN1CCC(NC(=O)CN2CCN(CC(=O)O)CCN(CC(=O)O)CCN(CC(=O)O)CC2)CC1)C(=O)N[C@H]1CC(=O)NCCCC[C@@H](C(N)=O)N(C)C(=O)[C@H](Cc2c[nH]c3ccccc23)N(C)C(=O)[C@H](CCCNC(=N)N)N(C)C(=O)[C@@H](Cc2ccccc2)NC(=O)[C@H](Cc2c[nH]cn2)N(C)C1=O [^68Ga-labeled CCZ01099, metal not drawn] ? 0.31

* * *

testSummary: Biodistribution of 177Lu-labeled αMSH analogues in mice bearing B16F10 mouse melanoma
Assay type: in vivo, C57BL/6J mice
condition: mouse, thyroid, iv, total radioactivity; 1 h p.i., C57BL/6J mice, B16F10 melanoma; read-out: Biodistribution, Thyroid
measurementKind: tissue uptake at 1 h (%ID/g)
Give just the number in %ID/g; leave the unit off.

What does the record list as tissue uptake at 1 h for CCCC[C@H](NC(=O)CN1CCC(NC(=O)[C@H](CCCCNC(=O)CN2CCN(CC(=O)O)CCN(CC(=O)O)CCN(CC(=O)O)CC2)NC(=O)[C@H](CCC(=O)O)NC(=O)CCCc2ccc(I)cc2)CC1)C(=O)N[C@H]1CC(=O)NCCCC[C@@H](C(N)=O)N(C)C(=O)[C@H](Cc2c[nH]c3ccccc23)N(C)C(=O)[C@H](CCCNC(=N)N)N(C)C(=O)[C@@H](Cc2ccccc2)NC(=O)[C@H](Cc2c[nH]cn2)N(C)C1=O [^177Lu-labeled CCZ01088, metal not drawn] ? 1.68

* * *

testSummary: Biodistribution of 177Lu-labeled αMSH analogues in mice bearing B16F10 mouse melanoma
Type: in vivo, C57BL/6J mice
condition: male, mouse, testes, iv, total radioactivity; 24 h p.i., C57BL/6J mice, B16F10 melanoma; read-out: Biodistribution, Testes
Each entry below lists one item and its recorded tissue uptake at 24 h value.
Could you give the number and then its unit, please?

Examples with answers:
CCCC[C@H](NC(=O)CN1CCC(NC(=O)[C@H](CCCCNC(=O)CN2CCN(CC(=O)O)CCN(CC(=O)O)CCN(CC(=O)O)CC2)NC(=O)[C@H](CCC(=O)O)NC(=O)CCCc2ccc(I)cc2)CC1)C(=O)N[C@H]1CC(=O)NCCCC[C@@H](C(N)=O)N(C)C(=O)[C@H](Cc2c[nH]c3ccccc23)NC(=O)[C@H](CCCNC(=N)N)N(C)C(=O)[C@@H](Cc2ccccc2)NC(=O)[C@H](Cc2c[nH]cn2)NC1=O [^177Lu-labeled CCZ01118, metal not drawn] :: 0.16 %ID/g
CCCC[C@H](NC(=O)CN1CCC(NC(=O)CN2CCN(CC(=O)O)CCN(CC(=O)O)CCN(CC(=O)O)CC2)CC1)C(=O)N[C@H]1CC(=O)NCCCC[C@@H](C(N)=O)N(C)C(=O)[C@H](Cc2c[nH]c3ccccc23)N(C)C(=O)[C@H](CCCNC(=N)N)N(C)C(=O)[C@@H](Cc2ccccc2)NC(=O)[C@H](Cc2c[nH]cn2)N(C)C1=O [^177Lu-labeled CCZ01099, metal not drawn] :: 0.03 %ID/g
CCCC[C@H](NC(=O)CN1CCC(NC(=O)[C@H](CCCCNC(=O)CN2CCN(CC(=O)O)CCN(CC(=O)O)CCN(CC(=O)O)CC2)NC(=O)[C@H](CCC(=O)O)NC(=O)CCCc2ccc(I)cc2)CC1)C(=O)N[C@H]1CC(=O)NCCCC[C@@H](C(N)=O)NC(=O)[C@H](Cc2c[nH]c3ccccc23)NC(=O)[C@H](CCCNC(=N)N)NC(=O)[C@@H](Cc2ccccc2)NC(=O)[C@H](Cc2c[nH]cn2)NC1=O [^177Lu-labeled CCZ01082, metal not drawn] :: 0.32 %ID/g

What does the record list as tissue uptake at 24 h for CCCC[C@H](NC(=O)CN1CCC(NC(=O)CN2CCN(CC(=O)O)CCN(CC(=O)O)CCN(CC(=O)O)CC2)CC1)C(=O)N[C@H]1CC(=O)NCCCC[C@@H](C(N)=O)N(C)C(=O)[C@H](Cc2c[nH]c3ccccc23)NC(=O)[C@H](CCCNC(=N)N)N(C)C(=O)[C@@H](Cc2ccccc2)NC(=O)[C@H](Cc2c[nH]cn2)NC1=O [^177Lu-labeled CCZ01106, metal not drawn] ? 0.03 %ID/g

What does the record list as tissue uptake at 24 h for CCCC[C@H](NC(=O)CN1CCC(NC(=O)[C@H](CCCCNC(=O)CN2CCN(CC(=O)O)CCN(CC(=O)O)CCN(CC(=O)O)CC2)NC(=O)[C@H](CCC(=O)O)NC(=O)CCCc2ccc(I)cc2)CC1)C(=O)N[C@H]1CC(=O)NCCCC[C@@H](C(N)=O)N(C)C(=O)[C@H](Cc2c[nH]c3ccccc23)N(C)C(=O)[C@H](CCCNC(=N)N)N(C)C(=O)[C@@H](Cc2ccccc2)NC(=O)[C@H](Cc2c[nH]cn2)N(C)C1=O [^177Lu-labeled CCZ01088, metal not drawn] ? 0.17 %ID/g
